# Tested on: Human betaherpesvirus 5
# procedure_text: Antiviral activity against Human cytomegalovirus T3135 expressing UL97 kinase H587Y mutant gene infected in human foreskin fibroblast measured 6 days post infection by SEAP reporter gene assay
# measurement_setup: Human betaherpesvirus 5, T3135, 144 h
value_type: EC50 (µM)

smiles_repr=Nc1nc2c(ncn2COC(CO)CO)c(=O)[nH]1 subject_of_test="Human betaherpesvirus 5" units=µM measured_result=1

* * *

# System: Human betaherpesvirus 5
# procedure_text: Antiviral activity against Human cytomegalovirus T3239 expressing UL97 kinase V665I mutant gene infected in human foreskin fibroblast measured 6 days post infection by SEAP reporter gene assay
# measurement_setup: Human betaherpesvirus 5, T3239, 144 h
value_type: EC50 (µM)

compound="Nc1nc2c(ncn2COC(CO)CO)c(=O)[nH]1 [GANCICLOVIR]" measured_result=1.06
